Origin of values: paper PMC7826789

Property: Percent Control; scope: individual compounds
Tested on: PIP5K2C
Construct: gene PIP4K2C
Conditions: Compound Concentration (nM):1000;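 further: KINOMEscan scanMAX binding as percent activity remaining versus control; lower means stronger binding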
observedProperty: Percent Control (%)

[[record]]
compound = "C[C@@H](Oc1cc(-n2cnc3ccc(OC4CCN(C)CC4)cc32)sc1C(N)=O)c1ccccc1Cl [GSK579289A]"
testsystem = "PIP5K2C"
testresult = 75

[[record]]
compound = "CC1=C(C(=O)Nc2ccc3[nH]ncc3c2)C(c2ccc(Cl)c(Cl)c2)CC(=O)N1 (stereo not shown) [GSK299115A]"
testsystem = "PIP5K2C"
testresult = 82

[[record]]
compound = "CCn1c(-c2nonc2N)nc2c(C#CC(C)(C)O)nc(OCCNC)cc21.Cl"
testsystem = "PIP5K2C"
testresult = 78

[[record]]
compound = "NS(=O)(=O)c1ccc(N/N=C2\\C(=O)Nc3ccc(C(=O)NCCc4c[nH]cn4)cc32)cc1 [GW300660X]"
testsystem = "PIP5K2C"
testresult = 48


* * *

Test system: ALK(L1196M)
Settings: Compound Concentration (nM):1000
observedProperty: Percent Control

[[record]]
molecule = "CCS(=O)(=O)c1ccc(OC)c(Nc2ncc(-c3cccc(OC)c3)o2)c1 [GW580509X]"
observedproperty = "Percent Control"
testresult = "100%"

[[record]]
molecule = "COc1ccc2[nH]c3c4[nH]c5ccc(OC)cc5c4c4c(c3c2c1)C(=O)NC4=O [GW296115X]"
observedproperty = "Percent Control"
testresult = "70%"

[[record]]
molecule = "COC(=O)Nc1nc2ccc(Oc3ccc(NC(=O)Nc4cc(C(F)(F)F)ccc4F)cc3)cc2s1.Cl [GW693917A]"
observedproperty = "Percent Control"
testresult = "87%"

[[record]]
molecule = "COc1cc(/C=N/Nc2ncnc3[nH]ncc23)ccc1O [GW578748X]"
observedproperty = "Percent Control"
testresult = "75%"

[[record]]
molecule = "CCn1c(-c2nonc2N)nc2c(C#CC(C)(C)O)nc(OCCNC)cc21.Cl"
observedproperty = "Percent Control"
testresult = "100%"

[[record]]
molecule = "COc1ccc(COc2ccc(Cc3cnc(N)nc3N)cc2OC)cc1 [GW632580X]"
observedproperty = "Percent Control"
testresult = "87%"

[[record]]
molecule = "O=C1Nc2ccc(C(=O)c3ccco3)cc2C1=Cc1cc(Cl)c(O)c(Cl)c1 [GW406108X]"
observedproperty = "Percent Control"
testresult = "86%"

[[record]]
molecule = "COc1cccc(-n2ncc3c(N/N=C/c4ccncc4)ncnc32)c1 [GW784752X]"
observedproperty = "Percent Control"
testresult = "91%"

[[record]]
molecule = "COc1cc(N2CCN(C(C)C)CC2)ccc1Nc1nc(Nc2ccc(F)cc2C(=O)NC[C@@H](O)CO)c2cc[nH]c2n1 [GSK1392956A]"
observedproperty = "Percent Control"
testresult = "1.1%"

[[record]]
molecule = "CCc1ccc(Oc2nccc(-c3c(-c4ccc(F)cc4)ncn3C3CCNCC3)n2)cc1"
observedproperty = "Percent Control"
testresult = "98%"

[[record]]
molecule = "Cl.O=S1CCN(Cc2ccc(-c3ccc4ncnc(Nc5ccc(OCc6ccccc6)c(F)c5)c4c3)o2)CC1 [GW576924A]"
observedproperty = "Percent Control"
testresult = "100%"

[[record]]
molecule = "COc1cc(C=NNc2ncnc3c2cnn3-c2ccccc2)ccc1O [GW513184X]"
observedproperty = "Percent Control"
testresult = "100%"

[[record]]
molecule = "COc1ccccc1-c1cc(/C=C2\\C(=O)Nc3ncc(Br)cc32)cc(Br)c1O [GW442130X]"
observedproperty = "Percent Control"
testresult = "100%"

[[record]]
molecule = "C/C(Nc1ccc(S(N)(=O)=O)cc1)=C1/C(=O)Nc2ccccc21 [GW335962X]"
observedproperty = "Percent Control"
testresult = "60%"

[[record]]
molecule = "COc1cc2ncnc(Nc3ccc4c(cnn4Cc4ccccc4)c3)c2cc1OC.Cl [GW282449A]"
observedproperty = "Percent Control"
testresult = "100%"

[[record]]
molecule = "COc1cccc(-c2c[nH]c3c(N/N=C/c4ccncc4)ncnc23)c1 [GW814408X]"
observedproperty = "Percent Control"
testresult = "99%"

[[record]]
molecule = "NS(=O)(=O)c1ccc(N/N=C2\\C(=O)Nc3ccc(C(=O)NCCc4c[nH]cn4)cc32)cc1 [GW300660X]"
observedproperty = "Percent Control"
testresult = "91%"

